target_desc: USP7 53-206, Q93009
Sequence (Q93009 53-206): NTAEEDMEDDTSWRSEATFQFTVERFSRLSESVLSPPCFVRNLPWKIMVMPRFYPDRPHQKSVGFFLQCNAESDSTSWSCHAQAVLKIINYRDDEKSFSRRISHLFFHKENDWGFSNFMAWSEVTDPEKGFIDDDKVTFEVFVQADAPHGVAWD
measurement_type: selected by phage display

# binder, assay_value
data = [
    ("DAASSSGSSSHAHVNS [RTTN, Q86VV8]", "confidence 3 (active)"),
    ("DASSQTRMVHASASTS [BSN, Q9UPA5]", "confidence 3 (active)"),
]

Data origin, for the record: paper PMC8769072
